- assayed.system: Protein-arginine deiminase type-4 (Homo sapiens) (UniProt Q9UM07)
- Sequence (Q9UM07 whole entry, looked up): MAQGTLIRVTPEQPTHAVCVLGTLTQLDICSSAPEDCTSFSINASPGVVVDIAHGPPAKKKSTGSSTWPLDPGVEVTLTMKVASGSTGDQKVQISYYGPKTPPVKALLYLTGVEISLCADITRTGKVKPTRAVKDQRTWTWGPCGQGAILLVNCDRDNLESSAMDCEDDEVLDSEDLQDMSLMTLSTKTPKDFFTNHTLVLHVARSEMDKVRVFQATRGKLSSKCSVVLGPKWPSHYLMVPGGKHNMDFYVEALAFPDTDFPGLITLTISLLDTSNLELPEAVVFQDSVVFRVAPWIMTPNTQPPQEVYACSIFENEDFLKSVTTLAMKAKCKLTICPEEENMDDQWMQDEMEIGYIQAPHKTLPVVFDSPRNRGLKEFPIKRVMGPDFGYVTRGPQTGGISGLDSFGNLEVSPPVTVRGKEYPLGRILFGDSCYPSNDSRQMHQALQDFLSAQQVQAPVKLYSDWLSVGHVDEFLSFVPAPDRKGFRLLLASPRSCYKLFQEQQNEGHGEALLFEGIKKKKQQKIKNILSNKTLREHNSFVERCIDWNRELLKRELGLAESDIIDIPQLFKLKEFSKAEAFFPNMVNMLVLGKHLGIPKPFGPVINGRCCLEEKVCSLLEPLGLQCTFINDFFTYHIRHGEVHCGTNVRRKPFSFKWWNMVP
- assay.remarks: protein arginine deiminase 4 enzyme blockade – biochemical, fluorescence polarization, 1536-well format, primary screen (AID 485272);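 note: 0% = PAD4 with RCA probe and DMSO and 100% = probe without PAD4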
- test.parameters: recombinant PAD4, RCA probe fluorescence polarization; at 6.36 µM; stronger effect = higher value
The whole screen tested about 330,000 compounds, of which about 1,300 (0.39%) were called active. Many of the other results were omitted from the sample, so actives are more common in it than they were.
experimental.endpoint: inhibition (%)
Answer with a number only, understood to be in %.

COc1ccc(CCNS(=O)(=O)c2cc3c(cc2C)NC(=O)CO3)cc1OC    -1.01
COc1cc(SC#N)ccc1N=Cc1c(C)[nH]n(-c2ccc(C)cc2)c1=O    27.3
COc1cccc(NC(=O)C2C(c3ccccc3)C2(Cl)Cl)c1 (centres undefined)    -7.27
CC(C)CC(=O)NC(=S)Nc1ccc(F)cc1F    -0.18
C=CCOc1c(Br)cc(/C=N\n2nnnc2N)cc1OC    -3.76

Data request: Note inhibition for the compound shown: CC(=O)Nc1ccc(SCC(=O)Nc2ccccc2Oc2ccccc2)cc1
Data returned: 2.48

Data request: For the compound CC(C)C(C)(C#N)NC(=O)CSc1nncn1-c1ccccc1 (centres undefined) , report inhibition.
Data returned: -0.3

Data request: Given the compound CCOC(=O)CN(C(=O)COc1nc(C)cc(C)c1C#N)c1ccc(Cl)cc1 , write its reported inhibition.
Data returned: 5.17

Data request: Tell me its inhibition given Cc1nc(Cl)c2oc3ccccc3c2n1 as the entry.
Data returned: 15.3

Data request: Note down inhibition recorded for O=C(O)COCC(=O)NCc1csc2ccc(Cl)cc12
Data returned: -2.02

Data request: Name the recorded inhibition of the compound listed here: CS/C(=C\C(=O)c1ccco1)Nc1ccccc1Cl
Data returned: 0.03

Data request: Input CC(C)Oc1ccc(S(=O)(=O)N2CCOCC2)cc1NC(=O)C1CSC2(C)CCC(=O)N12 (centres undefined) , output reported inhibition.
Data returned: -1.2

Measured values drawn from PubChem BioAssay AID485272 for this set.
